Biological target: UniProt:P08183
Assay: Rhodamine-123 permeability across Caco-2 cell monolayers
Details: Caco-2, pH 7.4
Endpoint: Papp B→A at 120 min, 2.5 μg/mL (×10⁻⁶ cm/s)
Give bare numbers, in ×10⁻⁶ cm/s.

Name the reported Papp B→A at 120 min, 2.5 μg/mL value associated with the molecule COC(=O)c1ccccc1-c1c2ccc(=N)cc-2oc2cc(N)ccc12
190

* * *

Assay: Pharmacokinetic interaction of Triphala extract with phenacetin in rats
Settings: male, Wistar, rat, plasma, po, 30 mg/kg, T1/2, rats; phenacetin 30 mg/kg oral; control (phenacetin alone)
Endpoint: half-life (min)
Numbers only, in min.

Name the reported half-life value associated with the molecule CCOc1ccc(NC(C)=O)cc1
58.8

* * *

Assay: Pharmacokinetic interaction of Triphala extract with midazolam in rats
Conditions: male, Wistar, rat, plasma, po, 20 mg/kg, Tmax, rats; midazolam 20 mg/kg oral; control (midazolam alone)
Endpoint: Tmax (min)
Answers are plain numbers, in min.

Name the reported Tmax value associated with the compound Cc1ncc2n1-c1ccc(Cl)cc1C(c1ccccc1F)=NC2
22.8

* * *

Assay: Pharmacokinetic interaction of Triphala extract with midazolam in rats
Settings: male, Wistar, rat, plasma, po, 20 mg/kg, MRT, rats; midazolam 20 mg/kg oral; control (midazolam alone)
Endpoint: MRT (h)
Numbers only, in h.

Name the reported MRT value associated with the compound Cc1ncc2n1-c1ccc(Cl)cc1C(c1ccccc1F)=NC2
1.48

* * *

Experiment: Pharmacokinetic interaction of Triphala extract with phenacetin in rats
Details: male, Wistar, rat, plasma, po, 30 mg/kg, Kel, rats; phenacetin 30 mg/kg oral; control (phenacetin alone)
Endpoint: k el (s⁻¹)
Numbers only, in s⁻¹.

Name the reported k el value associated with the molecule CCOc1ccc(NC(C)=O)cc1 [phenacetin]
0.000206

* * *

Assay: Pharmacokinetic interaction of Triphala extract with phenacetin in rats
Conditions: male, Wistar, rat, plasma, iv, 5 mg/kg, Kel, rats; phenacetin 5 mg/kg iv; control (phenacetin alone)
Endpoint: k el (s⁻¹)
Give bare numbers, in s⁻¹.

Name the reported k el value associated with the compound CCOc1ccc(NC(C)=O)cc1 [phenacetin]
0.000728

* * *

Notes on pIC50 obtained with CYP2D6 (Homo sapiens).
Sequence (P10635 whole entry): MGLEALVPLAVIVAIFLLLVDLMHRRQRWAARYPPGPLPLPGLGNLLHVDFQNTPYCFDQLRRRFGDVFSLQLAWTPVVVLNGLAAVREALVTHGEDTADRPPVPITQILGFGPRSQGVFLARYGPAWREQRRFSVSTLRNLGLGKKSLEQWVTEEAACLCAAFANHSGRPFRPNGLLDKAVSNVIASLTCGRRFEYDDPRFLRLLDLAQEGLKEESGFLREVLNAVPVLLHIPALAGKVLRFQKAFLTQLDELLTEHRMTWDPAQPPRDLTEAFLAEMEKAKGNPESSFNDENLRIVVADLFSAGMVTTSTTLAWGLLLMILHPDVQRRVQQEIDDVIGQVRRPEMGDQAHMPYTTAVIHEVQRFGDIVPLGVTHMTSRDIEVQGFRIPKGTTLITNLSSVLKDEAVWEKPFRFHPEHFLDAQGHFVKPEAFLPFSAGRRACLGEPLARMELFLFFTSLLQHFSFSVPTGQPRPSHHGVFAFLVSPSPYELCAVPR
Numbers only, as −log10 of the molar value.

O=c1oc2c(O)c(O)cc3c(=O)oc4c(O)c(O)cc1c4c23 [Ellagic acid] : 4.37

Name the reported pIC50 value associated with the compound O=C(O)c1cc(O)c(O)c(O)c1 [Gallic acid]
3.58

* * *

Assay: Pharmacokinetic interaction of Triphala extract with midazolam in rats
Conditions: male, Wistar, rat, plasma, iv, 5 mg/kg, Cmax, rats; midazolam 5 mg/kg iv; control (midazolam alone)
Endpoint: Cmax (ng/mL)
Answers are plain numbers, in ng/mL.

Name the reported Cmax value associated with the molecule Cc1ncc2n1-c1ccc(Cl)cc1C(c1ccccc1F)=NC2
910

* * *

Test: Pharmacokinetic interaction of Triphala extract with midazolam in rats
Settings: male, Wistar, rat, plasma, iv, 5 mg/kg, AUC, rats; midazolam 5 mg/kg iv; control (midazolam alone)
Endpoint: AUC (ng·h/mL)
Numbers only, in ng·h/mL.

Name the reported AUC value associated with the compound Cc1ncc2n1-c1ccc(Cl)cc1C(c1ccccc1F)=NC2 [midazolam]
670

* * *

Experiment: Pharmacokinetic interaction of Triphala extract with midazolam in rats
Conditions: male, Wistar, rat, plasma, po, 20 mg/kg, Cmax, rats; midazolam 20 mg/kg oral; control (midazolam alone)
Endpoint: Cmax (ng/mL)
Numbers only, in ng/mL.

Name the reported Cmax value associated with the compound Cc1ncc2n1-c1ccc(Cl)cc1C(c1ccccc1F)=NC2 [midazolam]
950

* * *

Notes on IC50 obtained with CYP2C9 (Homo sapiens, UniProt P11712).
Sequence (P11712 whole entry): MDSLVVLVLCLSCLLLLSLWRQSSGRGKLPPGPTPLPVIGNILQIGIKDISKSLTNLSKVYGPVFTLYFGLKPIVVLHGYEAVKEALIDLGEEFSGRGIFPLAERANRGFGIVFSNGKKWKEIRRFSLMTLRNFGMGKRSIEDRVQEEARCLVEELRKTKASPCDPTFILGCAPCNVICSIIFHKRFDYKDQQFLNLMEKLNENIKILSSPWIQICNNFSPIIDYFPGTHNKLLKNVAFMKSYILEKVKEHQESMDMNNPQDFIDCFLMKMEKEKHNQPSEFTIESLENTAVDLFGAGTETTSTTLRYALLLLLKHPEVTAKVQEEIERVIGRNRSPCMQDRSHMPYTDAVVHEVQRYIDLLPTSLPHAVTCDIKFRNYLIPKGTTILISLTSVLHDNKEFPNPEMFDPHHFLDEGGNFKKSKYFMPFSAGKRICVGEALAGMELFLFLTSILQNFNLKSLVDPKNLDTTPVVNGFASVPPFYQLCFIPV
One number for each entry, in µM.

O=c1oc2c(O)c(O)cc3c(=O)oc4c(O)c(O)cc1c4c23 [Ellagic acid] : 27.1

The record that follows has no IC50 shown yet.
// fetch CYP2C9 (Homo sapiens, UniProt P11712) IC50 for O=C(O)c1cc(O)c(O)c(O)c1 [Gallic acid]
338

* * *

Assay: Pharmacokinetic interaction of Triphala extract with phenacetin in rats
Details: male, Wistar, rat, plasma, po, 30 mg/kg, MRT, rats; phenacetin 30 mg/kg oral; control (phenacetin alone)
Endpoint: MRT (h)
Answers are plain numbers, in h.

Name the reported MRT value associated with the compound CCOc1ccc(NC(C)=O)cc1 [phenacetin]
1.32

* * *

Target: P-gp (Homo sapiens)
Sequence (P08183 whole entry): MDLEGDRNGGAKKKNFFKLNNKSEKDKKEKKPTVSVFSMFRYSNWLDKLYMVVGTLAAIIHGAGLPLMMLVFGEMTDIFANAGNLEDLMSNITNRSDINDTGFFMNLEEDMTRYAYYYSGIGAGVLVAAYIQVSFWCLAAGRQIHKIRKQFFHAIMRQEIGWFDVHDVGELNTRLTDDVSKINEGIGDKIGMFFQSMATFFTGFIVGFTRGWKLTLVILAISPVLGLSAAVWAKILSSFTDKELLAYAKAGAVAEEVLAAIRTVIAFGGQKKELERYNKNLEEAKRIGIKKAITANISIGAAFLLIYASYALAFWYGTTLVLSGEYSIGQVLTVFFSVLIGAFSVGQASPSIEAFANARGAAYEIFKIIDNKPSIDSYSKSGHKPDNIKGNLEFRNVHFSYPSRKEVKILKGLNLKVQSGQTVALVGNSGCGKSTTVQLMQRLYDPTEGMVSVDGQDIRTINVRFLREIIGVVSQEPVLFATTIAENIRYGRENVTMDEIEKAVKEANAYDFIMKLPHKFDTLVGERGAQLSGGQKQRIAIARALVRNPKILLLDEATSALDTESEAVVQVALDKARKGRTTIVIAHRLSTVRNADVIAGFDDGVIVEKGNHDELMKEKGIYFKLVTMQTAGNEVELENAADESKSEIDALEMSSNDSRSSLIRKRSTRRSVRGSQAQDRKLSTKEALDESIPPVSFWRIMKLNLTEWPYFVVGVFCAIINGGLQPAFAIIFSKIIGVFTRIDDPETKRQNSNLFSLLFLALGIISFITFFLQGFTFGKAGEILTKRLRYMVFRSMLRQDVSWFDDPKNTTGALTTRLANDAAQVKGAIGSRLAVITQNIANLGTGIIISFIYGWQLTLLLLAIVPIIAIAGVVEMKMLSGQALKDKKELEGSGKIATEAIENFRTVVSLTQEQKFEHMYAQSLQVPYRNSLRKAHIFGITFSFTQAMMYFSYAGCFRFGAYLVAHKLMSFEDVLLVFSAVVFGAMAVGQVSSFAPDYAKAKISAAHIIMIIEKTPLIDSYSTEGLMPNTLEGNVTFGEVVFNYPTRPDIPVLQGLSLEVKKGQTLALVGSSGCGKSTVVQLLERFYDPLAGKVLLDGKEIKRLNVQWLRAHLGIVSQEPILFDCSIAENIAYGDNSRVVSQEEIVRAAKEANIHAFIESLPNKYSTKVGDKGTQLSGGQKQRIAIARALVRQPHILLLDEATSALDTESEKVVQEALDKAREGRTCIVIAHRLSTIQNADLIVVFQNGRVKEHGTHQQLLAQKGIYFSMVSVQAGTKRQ
Experiment: Rhodamine-123 permeability across Caco-2 cell monolayers
Conditions: Caco-2, pH 7.4
Endpoint: efflux ratio at 120 min, 2.5 μg/mL
Answers are plain numbers.

Name the reported efflux ratio at 120 min, 2.5 μg/mL value associated with the compound COC(=O)c1ccccc1-c1c2ccc(=N)cc-2oc2cc(N)ccc12
3.2

* * *

Target: CYP1A2 (Homo sapiens, UniProt P05177)
Sequence (P05177 whole entry): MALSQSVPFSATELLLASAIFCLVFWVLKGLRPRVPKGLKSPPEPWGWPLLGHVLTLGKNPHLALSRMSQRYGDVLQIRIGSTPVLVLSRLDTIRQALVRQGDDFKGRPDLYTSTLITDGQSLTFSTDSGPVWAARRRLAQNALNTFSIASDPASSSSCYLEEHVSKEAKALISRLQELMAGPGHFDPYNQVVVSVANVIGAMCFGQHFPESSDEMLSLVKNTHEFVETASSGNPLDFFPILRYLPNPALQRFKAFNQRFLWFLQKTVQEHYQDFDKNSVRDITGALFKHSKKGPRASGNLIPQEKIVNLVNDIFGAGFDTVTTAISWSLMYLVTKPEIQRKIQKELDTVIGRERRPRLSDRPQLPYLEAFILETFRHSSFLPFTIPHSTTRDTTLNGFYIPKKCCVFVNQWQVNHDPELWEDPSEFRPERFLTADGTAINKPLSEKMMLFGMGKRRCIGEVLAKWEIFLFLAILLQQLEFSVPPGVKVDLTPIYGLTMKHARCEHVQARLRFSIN
Endpoint: pIC50
One number for each entry, as −log10 of the molar value.

O=c1oc2c(O)c(O)cc3c(=O)oc4c(O)c(O)cc1c4c23 [Ellagic acid] : 4.90

The record that follows has no pIC50 shown yet.
// fetch CYP1A2 (Homo sapiens, UniProt P05177) pIC50 for O=C(O)c1cc(O)c(O)c(O)c1 [Gallic acid]
4.05

* * *

Assay: Pharmacokinetic interaction of Triphala extract with phenacetin in rats
Settings: male, Wistar, rat, plasma, iv, 5 mg/kg, Cmax, rats; phenacetin 5 mg/kg iv; control (phenacetin alone)
Endpoint: Cmax (ng/mL)
One number for each entry, in ng/mL.

Name the reported Cmax value associated with the molecule CCOc1ccc(NC(C)=O)cc1 [phenacetin]
3650

* * *

Experiment: Pharmacokinetic interaction of Triphala extract with phenacetin in rats
Conditions: male, Wistar, rat, plasma, iv, 5 mg/kg, AUC0-t, rats; phenacetin 5 mg/kg iv; control (phenacetin alone)
Endpoint: AUC(0-t)
Remember to quote the unit after the number.

Name the reported AUC(0-t) value associated with the compound CCOc1ccc(NC(C)=O)cc1 [phenacetin]
1770 ng·h/mL

* * *

Assay: Pharmacokinetic interaction of Triphala extract with phenacetin in rats
Conditions: male, Wistar, rat, plasma, iv, 5 mg/kg, CLtot, rats; phenacetin 5 mg/kg iv; control (phenacetin alone)
Endpoint: clearance (mL/min)
Numbers only, in mL/min.

Name the reported clearance value associated with the molecule CCOc1ccc(NC(C)=O)cc1 [phenacetin]
48.3

* * *

Assay: Pharmacokinetic interaction of Triphala extract with phenacetin in rats
Settings: male, Wistar, rat, plasma, iv, 5 mg/kg, MRT, rats; phenacetin 5 mg/kg iv; control (phenacetin alone)
Endpoint: MRT (min)
Answers are plain numbers, in min.

Name the reported MRT value associated with the compound CCOc1ccc(NC(C)=O)cc1
21

* * *

Assay: Pharmacokinetic interaction of Triphala extract with midazolam in rats
Details: male, Wistar, rat, plasma, iv, 5 mg/kg, Kel, rats; midazolam 5 mg/kg iv; control (midazolam alone)
Endpoint: k el (s⁻¹)
Give bare numbers, in s⁻¹.

Name the reported k el value associated with the compound Cc1ncc2n1-c1ccc(Cl)cc1C(c1ccccc1F)=NC2
0.00015

* * *

Experiment: Pharmacokinetic interaction of Triphala extract with midazolam in rats
Details: male, Wistar, rat, plasma, po, 20 mg/kg, T1/2, rats; midazolam 20 mg/kg oral; control (midazolam alone)
Endpoint: half-life (h)
Give bare numbers, in h.

Name the reported half-life value associated with the compound Cc1ncc2n1-c1ccc(Cl)cc1C(c1ccccc1F)=NC2
1.06

* * *

Experiment: Pharmacokinetic interaction of Triphala extract with phenacetin in rats
Settings: male, Wistar, rat, plasma, po, 30 mg/kg, Tmax, rats; phenacetin 30 mg/kg oral; control (phenacetin alone)
Endpoint: Tmax
Remember to quote the unit after the number.

Name the reported Tmax value associated with the compound CCOc1ccc(NC(C)=O)cc1 [phenacetin]
19.8 min
